human MASP2 IC50 values for the binders below.
molecular target: Recombinant human MASP2 enzyme (fragment corresponding to amino acids 297-686, C-terminal His Tag) (human, UniProt O00187 297-686); test: cell-based or functional assay
Sequence (O00187 other isoform, or with tags, fused parts or gaps limits assumed): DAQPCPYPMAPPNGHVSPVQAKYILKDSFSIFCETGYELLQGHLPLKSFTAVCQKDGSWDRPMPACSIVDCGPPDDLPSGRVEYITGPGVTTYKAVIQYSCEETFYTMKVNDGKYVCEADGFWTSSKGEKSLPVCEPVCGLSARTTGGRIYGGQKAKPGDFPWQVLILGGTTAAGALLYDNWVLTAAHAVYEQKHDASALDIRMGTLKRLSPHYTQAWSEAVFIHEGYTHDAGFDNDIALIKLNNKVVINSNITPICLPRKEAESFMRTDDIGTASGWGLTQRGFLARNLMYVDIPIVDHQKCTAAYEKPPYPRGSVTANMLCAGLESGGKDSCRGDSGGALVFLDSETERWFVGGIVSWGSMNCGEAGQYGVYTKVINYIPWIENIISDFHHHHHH
Bridge positions count the residues as written; N and C are the ends. Square brackets hold non-standard residues; d marks the D form. Ends that are not written are not given here. Pro(trans-4-F) = O=C(O)[C@@H]1C[C@@H](F)CN1; Oic = O=C(O)[C@@H]1C[C@@H]2CCCC[C@@H]2N1; tBuAla = CC(C)(C)C[C@H](N)C(=O)O; aThr = C[C@H](O)[C@H](N)C(=O)O; Pen = CC(C)(S)[C@H](N)C(=O)O; Nva = CCC[C@H](N)C(=O)O; Sar = CNCC(=O)O
Enter your answer as a number in nM; do not include the unit.

Worked set:
[Sar]ICSRSLPPICI[Pro(trans-4-F)]D-OH (disulfide 3-11; N-terminus assumed; SMILES CC[C@H](C)[C@H](NC(=O)CNC)C(=O)N[C@H]1CSSC[C@@H](C(=O)N[C@H](C(=O)N2C[C@H](F)C[C@H]2C(=O)N[C@@H](CC(=O)O)C(=O)O)[C@@H](C)CC)NC(=O)[C@H]([C@@H](C)CC)NC(=O)[C@@H]2CCCN2C(=O)[C@@H]2CCCN2C(=O)[C@H](CC(C)C)NC(=O)[C@H](CO)NC(=O)[C@H](CCCNC(=N)N)NC(=O)[C@H](CO)NC1=O) [((N-Me)G)-IC+SRSLPPIC+I-((trans-4-Fluoro)P)-D-OH] ... 490
AICSR[aThr]LPPICIPD-NH2 (disulfide 3-11; N-terminus assumed; SMILES CC[C@H](C)[C@H](NC(=O)[C@H](C)N)C(=O)N[C@H]1CSSC[C@@H](C(=O)N[C@H](C(=O)N2CCC[C@H]2C(=O)N[C@@H](CC(=O)O)C(N)=O)[C@@H](C)CC)NC(=O)[C@H]([C@@H](C)CC)NC(=O)[C@@H]2CCCN2C(=O)[C@@H]2CCCN2C(=O)[C@H](CC(C)C)NC(=O)[C@H]([C@H](C)O)NC(=O)[C@H](CCCNC(=N)N)NC(=O)[C@H](CO)NC1=O) [AIC+SR-(allo-T)-LPPIC+IPD-NH2] ... 330
FICSRSLP[Oic]I[Pen]IP-NH2 (disulfide 3-11; N-terminus assumed; SMILES CC[C@H](C)[C@H](NC(=O)[C@@H](N)Cc1ccccc1)C(=O)N[C@H]1CSSC(C)(C)[C@@H](C(=O)N[C@H](C(=O)N2CCC[C@H]2C(N)=O)[C@@H](C)CC)NC(=O)[C@H]([C@@H](C)CC)NC(=O)[C@@H]2C[C@@H]3CCCC[C@@H]3N2C(=O)[C@@H]2CCCN2C(=O)[C@H](CC(C)C)NC(=O)[C@H](CO)NC(=O)[C@H](CCCNC(=N)N)NC(=O)[C@H](CO)NC1=O) [FIC+SRSLP-(Oic)-I-(Pen)+IP-NH2] ... 81

Now consider the entry below.
# get_value(readout='human MASP2 IC50', item= A[Nva]CSRS[tBuAla]PPI[Pen]IPD-NH2 (disulfide 3-11; N-terminus assumed; SMILES CCC[C@H](NC(=O)[C@H](C)N)C(=O)N[C@H]1CSSC(C)(C)[C@@H](C(=O)N[C@H](C(=O)N2CCC[C@H]2C(=O)N[C@@H](CC(=O)O)C(N)=O)[C@@H](C)CC)NC(=O)[C@H]([C@@H](C)CC)NC(=O)[C@@H]2CCCN2C(=O)[C@@H]2CCCN2C(=O)[C@H](CC(C)(C)C)NC(=O)[C@H](CO)NC(=O)[C@H](CCCNC(=N)N)NC(=O)[C@H](CO)NC1=O) [A-(Nva)-C+SRS-((tBu)A)-PPI-(Pen)+IPD-NH2] ) 19
